Test: gradient 5% acetonitrile 3 min, to 50% in 2 min, to 85% in 15 min, held 3 min, 100 µL/min
Details: column: Zorbax Extend-C18 2.1 x 50 mm; eluents: water / acetonitrile, 0.1% formic acid
measurementKind: RP-LC retention time (s)
Report the value in s with no unit label.

Some entries whose results are on file:
molecule: COCCNC(=O)C(=O)NCCC(O)C(C)(C)C (stereo not drawn)
resultNumber: 614
//
molecule: Cc1cc(C)cc(C(=O)N2CCC(c3nc4ccncc4n3C)C2)c1 (stereo not drawn)
resultNumber: 547
//
molecule: COc1ccc(NC(=O)c2cn(-c3cc(N4CCCC(C)C4)ncn3)cn2)cc1OC (stereo not drawn)
resultNumber: 973
//
molecule: COc1ccccc1C(=O)N1CCN(C2=NS(=O)(=O)c3ccccc32)CC1
resultNumber: 698
//
molecule: Cc1nnc(-c2nnc(NCc3cccc(F)c3)c3ccccc23)o1
resultNumber: 826
//
molecule: Cc1ccc(-c2csc(NC(=O)C3CCC3)n2)cc1C
resultNumber: 1100

input: Note down RP-LC retention time recorded for `CCCNC(=O)N1C[C@@H]2C(=O)N(CCc3ccccc3)C(=O)[C@@H]2C1`
output: 716

input: Return value of RP-LC retention time for input CCc1nc2onc(C)c2c(=O)n1CC(=O)NC1CCCc2ccccc21 (stereo not drawn) , no commentary.
output: 892
